Source listed as paper PMC6318807.

Tested system: EP2 receptor (Homo sapiens, UniProt P43116)
Sequence (P43116 whole entry): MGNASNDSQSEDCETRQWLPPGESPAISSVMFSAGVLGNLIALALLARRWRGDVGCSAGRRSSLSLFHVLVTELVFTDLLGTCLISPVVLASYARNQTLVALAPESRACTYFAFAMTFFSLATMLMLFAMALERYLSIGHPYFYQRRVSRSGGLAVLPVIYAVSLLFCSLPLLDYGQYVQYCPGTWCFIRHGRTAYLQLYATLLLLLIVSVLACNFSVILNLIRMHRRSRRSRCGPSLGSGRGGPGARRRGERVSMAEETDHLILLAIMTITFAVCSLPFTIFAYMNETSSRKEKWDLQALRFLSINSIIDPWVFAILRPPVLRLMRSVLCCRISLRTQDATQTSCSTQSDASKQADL
Experiment notes: TR-FRET cAMP
Type: cell-based
Listing of entries alongside the reported TR-FRET cAMP; fold leftward shift of PGE2 EC50 at 20 μM compound.

{"Molecule": "CC(C)Sc1cc(N2CCOCC2)nc(-c2ccccc2)n1", "Result": "2.4 fold shift of PGE2 EC50 at 20 μM"}
{"Molecule": "FC(F)(F)c1cc(-c2ccccc2)nc(N2CCOCC2)n1", "Result": "2.4 fold shift of PGE2 EC50 at 20 μM"}
{"Molecule": "COc1ccc(-c2cc(C(F)(F)F)nc(N3CCOCC3)n2)cc1OC", "Result": "2.7 fold shift of PGE2 EC50 at 20 μM"}

# TR-FRET cAMP; fold leftward shift of PGE2 EC50 at 20 μM compound of `CC1CCN(c2ccccc2NC(=O)c2ccc(F)cc2)CC1` = 2.5 fold shift of PGE2 EC50 at 20 μM

# TR-FRET cAMP; fold leftward shift of PGE2 EC50 at 20 μM compound of `O=C(Nc1cccc(Cl)c1N1CCCCC1)c1ccc2c(c1)OCCO2` = 2.5 fold shift of PGE2 EC50 at 20 μM

---

Tested system: EP2 receptor (Homo sapiens, UniProt P43116)
Experiment notes: TR-FRET cAMP
Format: cell-based
Experimental endpoint: TR-FRET cAMP; fold leftward shift of PGE2 EC50 at 20 μM compound

Please review the entries below; each comes with its answer.
{"Molecule": "Cc1ccccc1C(=O)Nc1ccccc1N1CCCCC1", "Result": "3.3 fold shift of PGE2 EC50 at 20 μM"}
{"Molecule": "CC(C)Sc1cc(N2CCOCC2)nc(-c2ccc(Cl)cc2)n1", "Result": "2.4 fold shift of PGE2 EC50 at 20 μM"}

Shift focus to the following entry.
# TR-FRET cAMP; fold leftward shift of PGE2 EC50 at 20 μM compound of `O=C(Nc1ccccc1N1CCCCC1)c1ccc(F)cc1` = 4.3 fold shift of PGE2 EC50 at 20 μM
